subject-of-test: T1, human IgEλ (U266 derived) (human, UniProt P01854-1 1-428)
T1 construct: Whole IgE purified from U266 cells (Ikeyama et al. 1986); labelled with europium cryptate or biotin in some assays; also called human IgE (U266-derived); human IgE lambda
protocol-details: SPR (BIAcore 2000): IgG captured on protein G', IgE as analyte, bivalent analyte model; geomean
Kindly state Kd for each of the entries shown.
Answers are plain numbers, in nM.

Please review the following examples before continuing.
Antibody 19 IgG (antibody, V domains shown, Whole human IgG (section 1.4: IgG1)) VH: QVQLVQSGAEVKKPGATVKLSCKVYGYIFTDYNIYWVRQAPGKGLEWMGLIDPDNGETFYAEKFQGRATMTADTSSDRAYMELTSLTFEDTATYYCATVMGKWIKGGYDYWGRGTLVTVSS VL: QSVLTQPPSVSGAPGQRVTISCTGSSSNIGAGYDVHWYQQLPGTAPKLLIYDNFNRPSGVPDRFSGSKSGTSASLAIIGLQTEDEADYYCQSYDSTLSHSPFGTGTKLTVL :: 2.5
Antibody 23 IgG (antibody, V domains shown, Whole human IgG (section 1.4: IgG1)) VH: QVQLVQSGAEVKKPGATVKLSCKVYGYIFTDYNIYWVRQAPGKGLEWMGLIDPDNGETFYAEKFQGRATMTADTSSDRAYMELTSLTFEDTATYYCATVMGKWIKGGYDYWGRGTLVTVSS VL: QSVLTQPPSVSGAPGQRVTISCTGSSSNIGAGYDVHWYQQLPGTAPKLLIYDNFNRPSGVPDRFSGSKSGTSASLAIIGLQTEDEADYYCQSYDSHHLYSSFGTGTKLTVL :: 2.7

Next, consider the following binder.
Sample Antibody 13 IgG (antibody, V domains shown, Whole human IgG (section 1.4: IgG1)) VH: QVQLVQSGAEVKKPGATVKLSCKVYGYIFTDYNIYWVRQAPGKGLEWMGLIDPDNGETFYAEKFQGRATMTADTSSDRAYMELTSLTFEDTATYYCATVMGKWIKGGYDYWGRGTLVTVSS VL: QSVLTQPPSVSGAPGQRVTISCTGSSSNIGAGYDVHWYQQLPGTAPKLLIYDNFNRPSGVPDRFSGSKSGTSASLAIIGLQTEDEADYYCQSYDSNILYSPFGTGTKLTVL — what was its Kd?
2.3
